test details: Transnasal administration experiment in closed system, plasma pharmacokinetics (Test Example 1)
conditions: male, Wistar, rat, in vivo, inhaled or intranasal, 20 mg/kg, MRT∞, rat plasma; transnasal 20 mg/kg, closed system
Counter-ions that a name gives are not always drawn.
observable: MRT inf (h)
The reply should contain only the number, in h.

Query string: Entry CCN(CC)C(=O)C1(c2ccccc2)CC1CN (racemic) [milnacipran hydrochloride] has what MRT inf?
Result string: 1.88

====

test details: in vivo
Set-up: species or system Wistar male rats
conditions: male, Wistar, rat, iv, 20 mg/kg
Structures can show the parent of a compound that is named as a salt.
observable: MRT inf (h)
Dear colleague, please return just the value in h, with no unit written.

Query string: Any idea what its MRT inf is? The compound is CCN(CC)C(=O)C1(c2ccccc2)CC1CN (racemic) [milnacipran hydrochloride]
Result string: 1.34

====

test details: In vivo intraduodenal administration test of milnacipran hydrochloride (Test Example 3)
Parameters: species or system Wistar male rats
conditions: male, Wistar, rat, in vivo, 20 mg/kg
Where a name gives a salt, the structure may show the parent alone.
observable: AUC(0-inf) (ng·h/mL)
Report the figure in ng·h/mL without appending any unit label.

Query string: What measured AUC(0-inf) goes with CCN(CC)C(=O)C1(c2ccccc2)CC1CN (racemic) [milnacipran hydrochloride] ?
Result string: 7000

====

test details: Transnasal administration experiment in opened system, plasma pharmacokinetics (Test Example 1)
Assay type: in vivo, Wistar male rats
conditions: male, Wistar, in vivo, inhaled or intranasal; rat plasma; transnasal 20 mg/kg, opened system
Source text: AUC, MRT, MAT were derived from moment analysis. […] Each rat was fixed in a face-up position on a fixed base, and the right jugular vein was exposed to insert a catheter. After the nib of the catheter was indwelled in the atrium dextrum, the opened regions of the right jugular vein was sutured together using the medical suture thread with an attached needle (17 mm, angle ½ black nylon 5-0, Matsuda Sutures). After the sufficient recovery period, each rat was used for experiments. […]
Structures can show the parent of a compound that is named as a salt.
observable: Cmax (ng/mL)
The figure you give is taken to be in ng/mL; do not add the unit.

Query string: Recorded Cmax for CCN(CC)C(=O)C1(c2ccccc2)CC1CN (racemic) [milnacipran hydrochloride] , please?
Result string: 3040

====

test details: In vivo intraduodenal administration test of milnacipran hydrochloride (Test Example 3)
Design: species or system Wistar male rats
conditions: male, Wistar, rat, in vivo, 20 mg/kg
Counter-ions that a name gives are not always drawn.
observable: Tmax (h)
# output: bare number, implied unit h

Query string: May I ask what Tmax has been recorded for CCN(CC)C(=O)C1(c2ccccc2)CC1CN (racemic) [milnacipran hydrochloride] ?
Result string: 1

====

test details: In vivo intraduodenal administration test of milnacipran hydrochloride (Test Example 3)
Set-up: species or system Wistar male rats
conditions: male, Wistar, rat, in vivo, 20 mg/kg
Counter-ions that a name gives are not always drawn.
observable: Cmax (ng/mL)
Kindly provide the numeric value in ng/mL only, without the unit symbol.

Query string: Please report the recorded Cmax for CCN(CC)C(=O)C1(c2ccccc2)CC1CN (racemic) [milnacipran hydrochloride] .
Result string: 3070

====

test details: In vivo intranasal administration test of milnacipran hydrochloride (Test Example 2)
Design: species or system Wistar male rats
conditions: male, Wistar, in vivo, inhaled or intranasal; rat plasma; i.n. 10 mg/kg; 0 to 7 hours; read-out: AUC0-7 (converted)
Where a name gives a salt, the structure may show the parent alone.
observable: AUC(0-t) (ng·h/mL)
Report the figure in ng·h/mL without appending any unit label.

Query string: Endpoint output: AUC(0-t) of CCN(CC)C(=O)C1(c2ccccc2)CC1CN (racemic) [milnacipran hydrochloride] . Value?
Result string: 4380

====

test details: Transnasal administration experiment in opened system, plasma pharmacokinetics (Test Example 1)
Assay type: in vivo, Wistar male rats
conditions: male, Wistar, in vivo, inhaled or intranasal; rat plasma; transnasal 20 mg/kg, opened system
Structures can show the parent of a compound that is named as a salt.
observable: MRT inf (h)
The response must be a number in h with no trailing unit.

Query string: Please look up its MRT inf: CCN(CC)C(=O)C1(c2ccccc2)CC1CN (racemic) [milnacipran hydrochloride]
Result string: 1.77

====

test details: Transnasal administration experiment in closed system, plasma pharmacokinetics (Test Example 1)
conditions: male, Wistar, rat, in vivo, inhaled or intranasal, 20 mg/kg
Counter-ions that a name gives are not always drawn.
observable: AUC(0-inf) (ng·h/mL)
Numeric only. Scale: ng·h/mL

Query string: Entry CCN(CC)C(=O)C1(c2ccccc2)CC1CN (racemic) [milnacipran hydrochloride] : reported AUC(0-inf) = ?
Result string: 8400

====

test details: In vivo intravenous administration test of milnacipran hydrochloride (Test Example 2)
Parameters: species or system Wistar male rats
conditions: male, Wistar, rat, in vivo, iv, 20 mg/kg
Counter-ions that a name gives are not always drawn.
observable: AUC(0-inf) (ng·h/mL)
Write down the numeric answer in ng·h/mL and omit the unit.

Query string: Entry CCN(CC)C(=O)C1(c2ccccc2)CC1CN (racemic) [milnacipran hydrochloride] has what AUC(0-inf)?
Result string: 9680

====

test details: In vivo intranasal administration test of milnacipran hydrochloride (Test Example 3)
Design: species or system Wistar male rats
conditions: male, Wistar, in vivo, inhaled or intranasal; rat plasma; i.n. 20 mg/kg
Structures can show the parent of a compound that is named as a salt.
observable: AUC(0-inf) (ng·h/mL)
State the answer as a number, implicitly in ng·h/mL.

Query string: # input compound: CCN(CC)C(=O)C1(c2ccccc2)CC1CN (racemic) [milnacipran hydrochloride] ; wanted: its AUC(0-inf)
Result string: 8400

====

test details: Transnasal administration experiment in closed system, plasma pharmacokinetics (Test Example 1)
conditions: male, Wistar, rat, in vivo, inhaled or intranasal, 20 mg/kg
Counter-ions that a name gives are not always drawn.
observable: Cmax (ng/mL)
Please state the figure in ng/mL; there is no need to write the unit.

Query string: Item under review: CCN(CC)C(=O)C1(c2ccccc2)CC1CN (racemic) [milnacipran hydrochloride] . Reported Cmax?
Result string: 5120

====

test details: Evaluation of transfer of milnacipran hydrochloride to central nerve system, CSF concentration (Test Example 4)
Parameters: species or system Wistar male rats
conditions: male, Wistar, in vivo, inhaled or intranasal; rat CSF; i.n. 20 mg/kg; read-out: Tmax (time-to-maximum CSF concentration) (converted)
Structures can show the parent of a compound that is named as a salt.
observable: Tmax (min)
Express the result in min but write the number alone.

Query string: Param item = CCN(CC)C(=O)C1(c2ccccc2)CC1CN (racemic) [milnacipran hydrochloride] ; retrieve measured Tmax.
Result string: 20

====

test details: Evaluation of transfer of milnacipran hydrochloride to central nerve system, CSF concentration (Test Example 4)
Design: species or system Wistar male rats
conditions: male, Wistar, rat, in vivo, 20 mg/kg
Counter-ions that a name gives are not always drawn.
observable: Tmax (h)
Just the number please, in h, no unit attached.

Query string: Requested field: Tmax. Item: CCN(CC)C(=O)C1(c2ccccc2)CC1CN (racemic) [milnacipran hydrochloride]
Result string: 1

====

test details: Evaluation of transfer of milnacipran hydrochloride to central nerve system, CSF concentration (Test Example 4)
Design: species or system Wistar male rats
conditions: male, Wistar, rat, in vivo, iv, 20 mg/kg
Counter-ions that a name gives are not always drawn.
observable: Tmax
Dear colleague, please send the value followed by its unit.

Query string: For the compound CCN(CC)C(=O)C1(c2ccccc2)CC1CN (racemic) [milnacipran hydrochloride] , what Tmax is on record?
Result string: 10 min
